Tested on: Enterococcus faecalis NCTC 12697
Readout Kind: MIC

[
  {
    "Compound": "CC(C)C[C@H](NC(=O)[C@H](C)NC(=O)[C@H](Cc1c[nH]c2ccccc12)NC(=O)[C@H](CCCCN)NC(=O)[C@@H]1CCCN1C(=O)[C@H](CC(C)C)NC(=O)[C@@H](N)Cc1ccccc1)C(=O)N[C@@H](CCCCN)C(=O)N[C@@H](Cc1c[nH]c2ccccc12)C(=O)N[C@@H](C)C(=O)N[C@@H](C)C(=O)N[C@@H](CCCCN)C(N)=O [FLPKWALKWAAK]",
    "Measured Result": "≥ 512 µM"
  },
  {
    "Compound": "CC[C@H](C)[C@H](NC(=O)[C@@H](NC(=O)CNC(=O)[C@@H]1CCCN1C(=O)[C@@H](NC(=O)[C@@H](NC(=O)[C@H](CC(N)=O)NC(=O)[C@H](C)NC(=O)[C@H](C)NC(=O)[C@@H](NC(=O)[C@H](CCCCN)NC(=O)[C@H](CC(C)C)NC(=O)[C@@H](NC(=O)CNC(=O)[C@@H]1CCCN1C(=O)[C@H](CC(C)C)NC(=O)[C@@H](N)Cc1ccccc1)[C@@H](C)CC)C(C)C)C(C)C)C(C)C)C(C)C)C(=O)O [FLPGILKVAANVVPGVI]",
    "Measured Result": "≥ 512 µM"
  },
  {
    "Compound": "CC[C@H](C)[C@H](NC(=O)[C@H](C)NC(=O)[C@H](CO)NC(=O)[C@@H](NC(=O)[C@H](C)NC(=O)[C@H](CCCCN)NC(=O)[C@@H]1CCCN1C(=O)[C@@H](NC(=O)[C@H](CC(C)C)NC(=O)[C@H](CO)NC(=O)[C@H](CC(C)C)NC(=O)[C@@H](N)Cc1ccccc1)[C@@H](C)CC)[C@@H](C)CC)C(=O)N[C@@H](CO)C(=O)N[C@@H](C)C(=O)N[C@@H](CC(C)C)C(=O)N[C@@H](C)C(=O)N[C@@H](CC(N)=O)C(=O)N[C@@H](Cc1cnc[nH]1)C(=O)N[C@@H](Cc1ccccc1)C(N)=O [FLSLIPKAISAISALANHF]",
    "Measured Result": "≥ 64 µM"
  }
]
